- Experimental system: Integrin alpha-V/beta-3 (Homo sapiens, UniProt P05106+P06756)
- Sequence (P05106 27-788 limits assumed): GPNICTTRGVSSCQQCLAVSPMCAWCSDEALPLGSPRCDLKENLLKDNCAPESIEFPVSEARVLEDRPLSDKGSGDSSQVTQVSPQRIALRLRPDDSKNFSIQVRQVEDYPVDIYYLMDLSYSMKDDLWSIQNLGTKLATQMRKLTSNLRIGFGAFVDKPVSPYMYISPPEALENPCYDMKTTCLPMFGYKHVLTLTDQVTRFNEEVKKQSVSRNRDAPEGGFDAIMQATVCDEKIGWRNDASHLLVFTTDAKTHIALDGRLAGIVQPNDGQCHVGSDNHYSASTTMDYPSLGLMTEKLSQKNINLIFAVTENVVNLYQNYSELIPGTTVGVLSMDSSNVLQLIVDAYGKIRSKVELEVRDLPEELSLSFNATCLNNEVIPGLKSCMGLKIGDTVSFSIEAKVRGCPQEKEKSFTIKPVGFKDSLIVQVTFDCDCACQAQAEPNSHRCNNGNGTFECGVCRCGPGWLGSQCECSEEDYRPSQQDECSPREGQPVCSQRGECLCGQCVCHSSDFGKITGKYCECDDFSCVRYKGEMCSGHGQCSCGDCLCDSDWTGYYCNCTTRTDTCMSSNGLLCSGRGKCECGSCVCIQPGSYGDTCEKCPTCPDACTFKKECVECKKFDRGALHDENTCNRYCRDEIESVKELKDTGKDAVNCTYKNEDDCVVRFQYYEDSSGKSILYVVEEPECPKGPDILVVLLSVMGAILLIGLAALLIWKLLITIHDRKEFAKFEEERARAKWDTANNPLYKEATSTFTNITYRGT
- Sequence (P06756 31-889 limits assumed): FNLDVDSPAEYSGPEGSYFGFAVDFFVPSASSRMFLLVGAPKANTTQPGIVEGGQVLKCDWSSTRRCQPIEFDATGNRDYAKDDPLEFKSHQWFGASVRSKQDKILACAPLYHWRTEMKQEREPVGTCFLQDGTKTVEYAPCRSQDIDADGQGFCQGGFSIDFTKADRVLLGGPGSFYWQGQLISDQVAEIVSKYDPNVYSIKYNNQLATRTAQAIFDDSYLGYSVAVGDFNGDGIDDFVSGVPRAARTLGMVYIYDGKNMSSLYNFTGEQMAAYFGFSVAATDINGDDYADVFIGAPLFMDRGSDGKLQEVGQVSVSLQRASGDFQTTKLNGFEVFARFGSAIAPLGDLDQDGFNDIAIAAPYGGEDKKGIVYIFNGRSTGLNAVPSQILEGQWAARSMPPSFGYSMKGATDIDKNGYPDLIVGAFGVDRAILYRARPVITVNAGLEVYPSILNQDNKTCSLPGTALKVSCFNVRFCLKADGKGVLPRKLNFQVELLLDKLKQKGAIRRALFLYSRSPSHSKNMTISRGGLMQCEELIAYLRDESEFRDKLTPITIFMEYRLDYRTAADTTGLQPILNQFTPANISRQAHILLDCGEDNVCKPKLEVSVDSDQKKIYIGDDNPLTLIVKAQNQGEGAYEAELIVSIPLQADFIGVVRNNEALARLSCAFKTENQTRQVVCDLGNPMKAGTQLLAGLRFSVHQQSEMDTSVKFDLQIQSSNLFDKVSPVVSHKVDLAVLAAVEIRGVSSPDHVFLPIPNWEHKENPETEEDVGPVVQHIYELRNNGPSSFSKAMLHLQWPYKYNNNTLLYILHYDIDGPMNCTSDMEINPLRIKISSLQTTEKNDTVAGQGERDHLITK
- Sequence (P06756 891-1048 limits assumed): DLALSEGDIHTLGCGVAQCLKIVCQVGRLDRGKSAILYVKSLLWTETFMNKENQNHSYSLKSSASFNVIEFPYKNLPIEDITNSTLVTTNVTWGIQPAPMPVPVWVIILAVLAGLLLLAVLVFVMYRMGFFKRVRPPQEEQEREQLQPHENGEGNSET
- Assay text: Binding affinity towards alpha V/beta3 receptor by solid-phase receptor binding assays (SPRA)
- Assay type: protein-complex assay
Binarize IC50 at 6 nM; below is true (1), at or above is false (0).

INSERT INTO results (compound, experimental_system, class) VALUES
  ('COc1cc(/C=C/C(=O)O)ccc1NC(=O)c1cccc(NC(=N)N)c1', 'Integrin alpha-V/beta-3 (Homo sapiens, UniProt P05106+P06756)', 'false (0)'),
  ('COc1cc(NC(=O)c2cccc(NC3=NCCCN3)c2)ccc1CCC(=O)O', 'Integrin alpha-V/beta-3 (Homo sapiens, UniProt P05106+P06756)', 'true (1)'),
  ('O=C(Nc1ccc(CC(NS(=O)(=O)c2ccccc2)C(=O)O)cc1)c1cccc(NC2=NCCN2)c1 (stereo not given)', 'Integrin alpha-V/beta-3 (Homo sapiens, UniProt P05106+P06756)', 'true (1)'),
  ('O=C(O)/C=C/c1ccc(NC(=O)c2cccc(NC3=NCCCN3)c2)cc1', 'Integrin alpha-V/beta-3 (Homo sapiens, UniProt P05106+P06756)', 'true (1)'),
  ('N=C(N)Nc1cccc(C(=O)Nc2ccc(/C=C/C(=O)O)c(C(=O)O)c2)c1', 'Integrin alpha-V/beta-3 (Homo sapiens, UniProt P05106+P06756)', 'true (1)');

====

- Experimental system: Integrin alpha-V/beta-5 (Homo sapiens, UniProt P06756+P18084)
- Sequence (P06756 31-889 limits assumed): as the sequence (P06756 31-889 limits assumed) above
- Sequence (P06756 891-1048 limits assumed): as the sequence (P06756 891-1048 limits assumed) above
- Sequence (P18084 24-799 limits assumed): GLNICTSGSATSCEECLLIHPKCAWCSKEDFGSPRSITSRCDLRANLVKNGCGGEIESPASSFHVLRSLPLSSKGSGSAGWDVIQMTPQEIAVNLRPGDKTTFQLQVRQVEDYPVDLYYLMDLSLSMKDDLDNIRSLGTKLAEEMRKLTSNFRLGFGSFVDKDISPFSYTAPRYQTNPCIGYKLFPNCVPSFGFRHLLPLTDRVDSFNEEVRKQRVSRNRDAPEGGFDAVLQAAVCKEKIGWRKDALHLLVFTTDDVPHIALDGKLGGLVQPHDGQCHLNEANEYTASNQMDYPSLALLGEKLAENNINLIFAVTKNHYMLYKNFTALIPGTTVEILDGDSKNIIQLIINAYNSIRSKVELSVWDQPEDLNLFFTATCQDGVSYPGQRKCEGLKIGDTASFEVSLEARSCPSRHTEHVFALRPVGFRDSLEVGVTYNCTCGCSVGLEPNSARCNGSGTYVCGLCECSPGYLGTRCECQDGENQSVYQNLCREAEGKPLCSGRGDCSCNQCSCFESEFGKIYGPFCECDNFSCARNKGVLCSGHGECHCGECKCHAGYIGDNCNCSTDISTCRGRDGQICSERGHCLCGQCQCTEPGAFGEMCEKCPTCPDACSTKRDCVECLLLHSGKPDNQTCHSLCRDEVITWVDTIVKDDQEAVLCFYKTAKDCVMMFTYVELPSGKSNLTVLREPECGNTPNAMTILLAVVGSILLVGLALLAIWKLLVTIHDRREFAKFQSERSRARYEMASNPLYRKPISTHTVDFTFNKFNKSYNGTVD
- Assay text: Binding affinity towards alpha V-beta5 receptor expressed in HEK293 cells
- Assay type: cell-based
pIC50: −log10 of the molar value.
compounds and their reported pIC50
Experimental endpoint: pIC50

INSERT INTO measurements (compound, observed_value) VALUES
  ('COc1cc(NC(=O)c2cccc(NC3=NCCCN3)c2)ccc1OCC(=O)O', 7.54),
  ('N=C(N)Nc1cccc(C(=O)Nc2ccc(OCC(=O)O)cc2)c1', 6.84),
  ('CC(C)(C)OC(=O)NC(Cc1ccc(NC(=O)c2cccc(N=C(N)N)c2)cc1)C(=O)O (stereo not given)', 9.00),
  ('O=C(O)/C=C/c1ccc(NC(=O)c2cccc(NC3=NCCCN3)c2)c(Cl)c1', 7.89),
  ('CS(=O)(=O)NC(Cc1ccc(NC(=O)c2cccc(N=C(N)N)c2)cc1)C(=O)O (stereo not given)', 8.51),
  ('CC(C)OC(=O)NC(Cc1ccc(NC(=O)c2cccc(N=C(N)N)c2)cc1)C(=O)O (stereo not given)', 9.12),
  ('N=C(N)Nc1cccc(C(=O)Nc2ccc(/C=C/C(=O)O)cc2)c1', 7.41),
  ('Cc1cc(/C=C/C(=O)O)ccc1NC(=O)c1cccc(NC2=NCCCN2)c1', 8.02),
  ('O=C(O)/C=C/c1ccc(NC(=O)c2cccc(NC3=NCCCN3)c2)cc1', 8.12),
  ('N=C(N)Nc1cccc(C(=O)Nc2ccc(CC(NS(=O)(=O)c3ccccc3)C(=O)O)cc2)c1 (stereo not given)', 8.09);

====

- Experimental system: Integrin alpha-IIb/beta-3 (Homo sapiens, UniProt P05106+P08514)
- Sequence (P05106 27-788 limits assumed): as the sequence (P05106 27-788 limits assumed) above
- Sequence (P08514 32-887 limits assumed): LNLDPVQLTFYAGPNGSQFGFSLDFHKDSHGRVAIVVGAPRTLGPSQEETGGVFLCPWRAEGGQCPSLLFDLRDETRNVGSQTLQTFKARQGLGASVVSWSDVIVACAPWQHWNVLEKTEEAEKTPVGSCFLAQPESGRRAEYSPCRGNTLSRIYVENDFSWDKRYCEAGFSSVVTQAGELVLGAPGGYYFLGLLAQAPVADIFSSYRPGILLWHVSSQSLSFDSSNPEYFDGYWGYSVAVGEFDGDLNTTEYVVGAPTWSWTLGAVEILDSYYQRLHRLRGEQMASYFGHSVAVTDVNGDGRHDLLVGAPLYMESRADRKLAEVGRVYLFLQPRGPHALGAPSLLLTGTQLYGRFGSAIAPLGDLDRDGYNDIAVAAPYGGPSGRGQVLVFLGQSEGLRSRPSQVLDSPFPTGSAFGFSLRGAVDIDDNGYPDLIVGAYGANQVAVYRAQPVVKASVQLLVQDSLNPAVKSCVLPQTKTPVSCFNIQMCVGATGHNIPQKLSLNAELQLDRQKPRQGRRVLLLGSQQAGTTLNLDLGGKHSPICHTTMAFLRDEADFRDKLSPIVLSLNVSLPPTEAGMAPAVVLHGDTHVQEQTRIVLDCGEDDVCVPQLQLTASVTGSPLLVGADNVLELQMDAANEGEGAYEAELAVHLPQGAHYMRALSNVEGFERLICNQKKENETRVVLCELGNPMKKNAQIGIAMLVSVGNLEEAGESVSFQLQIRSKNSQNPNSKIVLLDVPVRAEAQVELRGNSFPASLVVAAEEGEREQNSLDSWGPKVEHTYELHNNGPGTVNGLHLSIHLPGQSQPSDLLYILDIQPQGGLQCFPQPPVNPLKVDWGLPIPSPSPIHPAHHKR
- Sequence (P08514 891-1039 limits assumed): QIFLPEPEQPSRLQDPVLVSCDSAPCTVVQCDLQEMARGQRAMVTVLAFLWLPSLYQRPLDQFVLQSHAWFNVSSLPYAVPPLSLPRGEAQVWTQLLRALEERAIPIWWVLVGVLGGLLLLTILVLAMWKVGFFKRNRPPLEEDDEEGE
- Assay text: Binding affinity towards alpha IIb/beta3 integrin by solid-phase receptor binding assay (SPRA)
Binarize IC50 at 40 nM; below is Y, at or above is N.

INSERT INTO assay_data (compound, experimental_system, class) VALUES
  ('O=C(O)/C=C/c1ccc(NC(=O)c2cccc(NC3=NCCCN3)c2)cc1Cl', 'Integrin alpha-IIb/beta-3 (Homo sapiens, UniProt P05106+P08514)', 'N'),
  ('O=C(Nc1ccc(CC(NS(=O)(=O)c2ccccc2)C(=O)O)cc1)c1cccc(NC2=NCCCN2)c1 (stereo not given)', 'Integrin alpha-IIb/beta-3 (Homo sapiens, UniProt P05106+P08514)', 'Y'),
  ('N=C(N)Nc1cccc(C(=O)Nc2ccc(/C=C/C(=O)O)c(Cl)c2)c1', 'Integrin alpha-IIb/beta-3 (Homo sapiens, UniProt P05106+P08514)', 'N'),
  ('N=C(N)Nc1cccc(C(=O)Nc2cc(Cl)c(/C=C/C(=O)O)c(Cl)c2)c1', 'Integrin alpha-IIb/beta-3 (Homo sapiens, UniProt P05106+P08514)', 'N'),
  ('COc1cc(NC(=O)c2cccc(NC3=NCCCN3)c2)ccc1CC(NC(=O)OC(C)C)C(=O)O (stereo not given)', 'Integrin alpha-IIb/beta-3 (Homo sapiens, UniProt P05106+P08514)', 'N'),
  ('COc1cc(/C=C/C(=O)O)ccc1NC(=O)c1cccc(NC(=N)N)c1', 'Integrin alpha-IIb/beta-3 (Homo sapiens, UniProt P05106+P08514)', 'Y'),
  ('O=C(O)/C=C/c1ccc(NC(=O)c2cccc(NC3=NCCCN3)c2)cc1', 'Integrin alpha-IIb/beta-3 (Homo sapiens, UniProt P05106+P08514)', 'N'),
  ('CC(C)OC(=O)NC(Cc1ccc(NC(=O)c2cccc(N=C(N)N)c2)cc1)C(=O)O (stereo not given)', 'Integrin alpha-IIb/beta-3 (Homo sapiens, UniProt P05106+P08514)', 'Y'),
  ('COc1cc(NC(=O)c2cccc(NC3=NCCCN3)c2)ccc1/C=C/C(=O)O', 'Integrin alpha-IIb/beta-3 (Homo sapiens, UniProt P05106+P08514)', 'N'),
  ('O=C(Nc1ccc(CC(NS(=O)(=O)c2ccccc2)C(=O)O)cc1)c1cccc(NC2=NCCN2)c1 (stereo not given)', 'Integrin alpha-IIb/beta-3 (Homo sapiens, UniProt P05106+P08514)', 'Y');
